Where do the numbers come from? From PubChem BioAssay.

Test: reversal of MRP1-mediated doxorubicin resistance, pilot screen, H69AR cells, doxorubicin co-treatment (AID 601)
Settings: H69AR cells + 2 uM doxorubicin, CellTiter-Glo, 72 h; measured here: viability with 2 uM doxorubicin; at 10 µM; stronger effect = lower value
hey, just use Criterion met if measured viability is less than 90%, otherwise Criterion not met

{"columns": ["molecule", "class"],
 "data": [
  ["Cc1nnc(SCCn2c(N3CC(C)CC(C)C3)nc3c2c(=O)n(C)c(=O)n3C)s1 (stereo not drawn)", "Criterion not met"],
  ["COc1ccc(C2/C(=C(/O)c3ccccc3)C(=O)C(=O)N2C)cc1 (stereo not drawn)", "Criterion not met"],
  ["O=C(CN(C(=O)CCNC(=O)c1ccco1)c1ccccc1)NC1CCCC1", "Criterion not met"],
  ["O=C(NCCN1CCOCC1)c1csc2c1CCCC2", "Criterion met"],
  ["COc1ccc2[nH]c(=O)c(CN(CCO)S(=O)(=O)c3ccc4c(c3)OCCO4)cc2c1", "Criterion met"],
  ["CCOC(=O)Nc1ccc2c(c1)N(C(=O)CN(CC)CC)c1ccccc1C=C2", "Criterion met"],
  ["Cc1ccc(NC(=O)CCC(=O)OCC(F)(F)C(F)F)cc1", "Criterion not met"],
  ["CCOC(=O)Cc1nn2c(=O)cc(C)nc2s1", "Criterion not met"],
  ["Cc1ccc(S(=O)(=O)NCC2CCC(C(=O)NCCCN3CCOCC3)CC2)cc1 (stereo not drawn)", "Criterion not met"],
  ["COc1cc(C(=O)Nc2cccc(-c3nc4cc(C)ccc4o3)c2)cc(OC)c1OC", "Criterion met"],
  ["CCCn1nc(NS(=O)(=O)c2ccccc2)c2cc3ccccc3nc21", "Criterion not met"],
  ["COc1ccccc1-n1nnnc1SCc1ccccc1", "Criterion met"],
  ["Cn1cnnc1SCC(=O)NCc1cccc(C(F)(F)F)c1", "Criterion not met"],
  ["O=C(Nc1ccccc1N1CCCCC1)c1ncoc1-c1ccc(F)cc1", "Criterion met"],
  ["COc1ccc(CC(=O)OCC(=O)NC(=O)NC2CCCCC2)cc1", "Criterion not met"],
  ["CCSc1nnc(NC(=O)C(CC)(C(F)(F)F)C(F)(F)F)s1", "Criterion met"]
]}
